Hi there, I'd appreciate the recorded protein stability index for every entry that follows.
Tested on: Saccharomyces cerevisiae
Protocol summary: protein stability index of tFT-peptide fusion (C-terminal peptide) (PSI (0-1 scale)); higher = more stable (slower turnover)
Settings: genetic background: das1 deletion; temperature: 30 C
// response body must contain only the number

For IKGWFVNGQVPR [PEX17 C-terminal 12 aa] , what is its reported protein stability index?
0.716

Quick check: protein stability index of TVSSVESVLAHL [AHP1 C-terminal 12 aa] ?
0.728

Can you share its protein stability index? I mean this sequence: IRLFRSARRWVG [ADE6 C-terminal 12 aa]
0.702

Request the reported protein stability index associated with EVLAADNTRVPC [YLL067C C-terminal 12 aa]
0.697

For the sequence LSTKNIDDGMIS [COG7 C-terminal 12 aa] , what protein stability index is on record?
0.706

Entry SNNPKLHHAKEA [MEP3 C-terminal 12 aa] : reported protein stability index = ?
0.696

// query protein stability index value for entry ILQCFTDEILNC [NDJ1 C-terminal 12 aa]
0.691

Given the entry NDTIKLNQSIYS [ASK10 C-terminal 12 aa] , report its measured protein stability index.
0.701

Data request, read-out protein stability index, for FEVDVDSLFKLY [MET1 C-terminal 12 aa]
0.707

What does the data say about its protein stability index? Entry: FRCKFKERKVDG [REP1 C-terminal 12 aa]
0.682

Consider the sequence shown here: NNDILQNKKLHQ [KIP1 C-terminal 12 aa] What is its recorded protein stability index?
0.686

Value lookup for protein stability index; key = FAFSFPITNVLE [YAL016C-B C-terminal 12 aa]
0.703

May I ask what protein stability index has been recorded for FDVELVDVKSAA [FPR2 C-terminal 12 aa] ?
0.679

Report protein stability index for GKRNYLLSVTFV [YCR006C C-terminal 12 aa] please.
0.653

Query (sequence): LIWLTIIYQALT [IRC18 C-terminal 12 aa] ; field requested: protein stability index
0.249

Which value of protein stability index has been reported for QTVRKLDMDFEV [REV1 C-terminal 12 aa] in the records?
0.735

Could you tell me which protein stability index is on file for SLRIEAIKKGFV [SPS1 C-terminal 12 aa] ?
0.727

// lookup protein stability index for KRGEIYETGKFF [OLE1 C-terminal 12 aa]
0.707

Which measured protein stability index value corresponds to SRFDYLTRKNAL [CBK1 C-terminal 12 aa] ?
0.672

I would be grateful if you could share the reported protein stability index for GYLIWSMGNRRR [YFL051C C-terminal 12 aa] .
0.731

May I ask what protein stability index has been recorded for KKGETFGYDKWW [OPT1 C-terminal 12 aa] ?
0.725

protein stability index lookup needed for IIRPLVLKNFII [YDR371C-A C-terminal 12 aa] , thanks.
0.503

# input sequence: EFEKAQEINKKA [YRB1 C-terminal 12 aa] ; wanted: its protein stability index
0.712

Quick check: protein stability index of PLCYWHYSADTY [YIL105W-A C-terminal 12 aa] ?
0.722

What protein stability index value was documented for this sequence, QNNNILNDMRVN [SPT23 C-terminal 12 aa] ?
0.669

----------
Tested on: Saccharomyces cerevisiae
Protocol summary: protein stability index of tFT-peptide fusion (C-terminal peptide) (PSI (0-1 scale)); higher = more stable (slower turnover)
Settings: genetic background: das1 deletion; temperature: 30 C
What protein stability index was measured for each of the following?
Reply with just the number.

Form field: reported protein stability index of MYSSKDNPASPK [TAF1 C-terminal 12 aa]
0.693

Need protein stability index of VYELVDAEALFS [YDR131C C-terminal 12 aa] , thanks.
0.745

Entry under review: HAAEQILKHFAA [THI4 C-terminal 12 aa] . Reported protein stability index?
0.697

Which protein stability index reading was recorded for the sequence MSSTDWVTKPTY [AFG1 C-terminal 12 aa] ?
0.698

Field request: protein stability index | item: TFGKCILDGFKA [SCM4 C-terminal 12 aa]
0.709

Any idea what its protein stability index is? The sequence is SYRVMQPNEFES [YGL214W C-terminal 12 aa]
0.7

Return reported protein stability index; argument: NTFRKIKGDKKN [MDJ1 C-terminal 12 aa]
0.687

Find the recorded protein stability index belonging to FAQDLMKCTYKI [NUP145 C-terminal 12 aa] and report it.
0.708

Value lookup for protein stability index; key = IKMIKELGNHRL [RMD6 C-terminal 12 aa]
0.684

Report protein stability index for GARIGLQGYKSH [YNL184C C-terminal 12 aa] please.
0.701

Look up protein stability index: ELERDITISREY [MIP1 C-terminal 12 aa]
0.701

Would you mind telling me what protein stability index value was observed for LVHFLGLILNNF [YNL171C C-terminal 12 aa] ?
0.68

----------
System: Saccharomyces cerevisiae
Protocol summary: protein stability index of tFT-peptide fusion (C-terminal peptide) (PSI (0-1 scale)); higher = more stable (slower turnover)
Settings: genetic background: das1 deletion; temperature: 30 C
Binary classification by protein stability index, with 0.7 as an inclusive lower bound for met; all other cases are not met.

Is protein stability index for LNAFQHPIVEFQ [YEL028W C-terminal 12 aa] at or above 0.7?
met

Determine whether this sequence has protein stability index no lower than 0.7: KQPDLQERVTQE [MHF1 C-terminal 12 aa]
not met

Does protein stability index meet or surpass 0.7 for GSEHSDPFSTFY [DBF20 C-terminal 12 aa] ?
met

# bool: protein stability index of RYENFINMARHK [YOR097C C-terminal 12 aa] >= 0.7
met

Reported protein stability index at or above 0.7? WAVGGVELTTDI [GCN1 C-terminal 12 aa]
met

Is it the case that STPIAIGIMNIL [YDR271C C-terminal 12 aa] has protein stability index reaching or exceeding 0.7?
not met

----------
Please go through the items and note down their protein stability index.
Test system: Saccharomyces cerevisiae
Protocol summary: protein stability index of tFT-peptide fusion (C-terminal peptide) (PSI (0-1 scale)); higher = more stable (slower turnover)
Settings: genetic background: wild type; temperature: 30 C
Reply with just the number.

# get_value(readout='protein stability index', item= HTSFQTNASPKD )
0.727

Which protein stability index value is on record for SGRKNQRILGLY ?
0.301

Look up protein stability index for this sequence: ASCFFLFVLRVF
0.233

Request the reported protein stability index associated with NGVVAYHVQSFC
0.6

I would be grateful if you could share the reported protein stability index for KKNMIIRVMIGV .
0.495

What protein stability index value was documented for this sequence, PLPLPPPPHPSL ?
0.723

Could you tell me which protein stability index is on file for WVESGGGCVGRI ?
0.706

For PQFRHFWALSTT , what is its reported protein stability index?
0.707

Could you tell me which protein stability index is on file for RGCGGGTGDGRG ?
0.697

# lookup: protein stability index of GGVVLVVVFCCV
0.42

Report protein stability index for LCFPHDFFSSSS please.
0.777

Consider the sequence NTQLPASPVSQG and give its measured protein stability index.
0.628

Query (sequence): PHSTTGPPPPLT ; field requested: protein stability index
0.695

Dear colleague, I am looking for the recorded protein stability index of the following sequence: RVLLLTGAFELV
0.585

Requested field: protein stability index. Item: FFLLLCSSCFGV
0.583

Any idea what protein stability index was measured for RRAGGARGKTSE ?
0.645

Sample PPPVPPSPSPPP — what was its protein stability index?
0.684

Reported protein stability index, sequence FRLNSYQNGSRV : ____
0.682

Return reported protein stability index; argument: KNRAEMREGIAL
0.63

----------
What protein stability index was measured for each of the following?
Test system: Saccharomyces cerevisiae
Protocol summary: protein stability index of tFT-peptide fusion (C-terminal peptide) (PSI (0-1 scale)); higher = more stable (slower turnover)
Settings: genetic background: das1 deletion; temperature: 30 C
Answer as a number with no unit attached.

Param item = ETCFSFVCSVQC ; retrieve measured protein stability index.
0.284

Which value of protein stability index has been reported for FFCCVLFSIVVY in the records?
0.129

Could you share which protein stability index value was measured for ILAVMFEIYAIL ?
0.349

Any idea what protein stability index was measured for RVLVEIVYFKVF ?
0.256

What does the record list as protein stability index for VRLLLIFRLLVI ?
0.417

Consider the sequence shown here: FCSVFAHFLLCH What is its recorded protein stability index?
0.4

Fill in: protein stability index of AIDLCIAVVGMV is ___
0.338

If you can, please state the reported protein stability index value of SYFSVTLFFTVI .
0.298

What value of protein stability index has been recorded for this entry: CSLFFFRLIFTL
0.219

Which protein stability index value is on record for GSLVLSCLMSRA ?
0.42

I'd like to know its protein stability index. The sequence in question is GHFILFWVFCFM
0.31

Entry VVLVVVWWGGVE has what protein stability index?
0.249

Name the recorded protein stability index for RWAAAVPLLVVG .
0.143

Fill in the blank: the reported protein stability index of EWVWVVFSCVSW is ____.
0.307

Would you mind telling me what protein stability index value was observed for RTRVRKTRIRTC ?
0.637

Entry VTSVARVVLHLL has what protein stability index?
0.606

What protein stability index value was documented for this sequence, EFFILYFFLKVL ?
0.21

What does the data say about its protein stability index? Entry: SGLVHVLILGAC
0.347

Name the reported protein stability index value associated with the sequence ILCYVWLVFSGF
0.223

Find the recorded protein stability index belonging to FFSGSVFMAVSL and report it.
0.444

I am curious: what protein stability index value has been reported for STSSVMVFLRMC ?
0.601

Which protein stability index value belongs to CMPVYYTVVIRL ?
0.204

For LASLSRPFRAKF , what is its reported protein stability index?
0.843

Entry under review: LWFFVVVVVRWV . Reported protein stability index?
0.149

Quick check: protein stability index of SFYAGLVVGGVG ?
0.508

Fill in: protein stability index of VFFVLIFLLFLF is ___
0.4

For the sequence shown here, GCDVWCLVLRMG , give the reported protein stability index.
0.517

Fill in the blank: the reported protein stability index of GFFCFLYFVVMF is ____.
0.18

If you can, please state the reported protein stability index value of CLFFFFFHLPIF .
0.425

Using the record for VLLVRIFLCWVC , report its protein stability index.
0.184

Any idea what protein stability index was measured for GVARALFLWKAV ?
0.65

Using the record for TLDWKFGWGGIG , report its protein stability index.
0.566

Please report the recorded protein stability index for LLFSVLLLGVGF .
0.334

Given ISSAGHNIRFLA , state its recorded protein stability index.
0.658

# get_value(readout='protein stability index', item= LLVFSLLRPFLF )
0.567

Which protein stability index is listed for IFRVTGFPIYIF ?
0.339

Quick check: protein stability index of LQSYIFSVRGIS ?
0.601

State the recorded protein stability index for this entry: FPPRLIPLLARS
0.31

Param item = LLLRWWLYSCCP ; retrieve measured protein stability index.
0.324

Recorded protein stability index for TVWRRIRHACAH , please?
0.596

What value of protein stability index has been reported for the following sequence? WFSAGSCRWVLC
0.543

Origin of measurements: the supplement of paper PMC10724198
